Where do the numbers come from? From ChEMBL document CHEMBL1125920.

Assay: MIC ratio measured as the mean MICs of gram-positive bacteria
Format: functional
Listed below: Ratio values for each entry.
# respond with the number and nothing more

- COMPOUND: "CCNCC1CCN(c2cc3c(c(C)c2F)c(=O)c(C(=O)O)cn3CC)C1 (stereo unspecified)"
  Ratio: 1.06
- COMPOUND: "Cc1c(F)c(N2CCNC(C)C2)cc2c1c(=O)c(C(=O)O)cn2-c1ccc(F)cc1F (stereo unspecified)"
  Ratio: 0.087
- COMPOUND: "CCn1cc(C(=O)O)c(=O)c2cc(F)c(N3CCC(N)C3)c(F)c21 (stereo unspecified)"
  Ratio: 0.27
- COMPOUND: "CC1(CN)CCN(c2cc3c(cc2F)c(=O)c(C(=O)O)cn3C2CC2)C1 (stereo unspecified)"
  Ratio: 0.044
- COMPOUND: "CCNCC1CCN(c2cc3c(cc2F)c(=O)c(C(=O)O)cn3-c2ccc(F)cc2F)C1 (stereo unspecified)"
  Ratio: 0.087

Moving on to another compound below.
Name the recorded Ratio for CCn1cc(C(=O)O)c(=O)c2c(C)c(F)c(N3CC(C)NC(C)C3)cc21 (stereo unspecified) .
1.2

====

Test: MIC ratio measured as the mean MICs of gram-negative bacteria
Assay type: functional
MEASURED_ENDPOINT: Ratio

- COMPOUND: "Cc1c(F)c(N2CCNC(C)C2)c(F)c2c1c(=O)c(C(=O)O)cn2C1CC1 (stereo not drawn)"
  TEST_VALUE: 0.066
- COMPOUND: "NC1CCN(c2c(F)cc3c(=O)c(C(=O)O)cn(C4CC4)c3c2F)C1 (stereo not drawn)"
  TEST_VALUE: 0.029

Returns the measured Ratio for the input compound. Input: Cc1c(F)c(N2CCNCC2)c(F)c2c1c(=O)c(C(=O)O)cn2C1CC1
0.043

Follow-up item: CCn1cc(C(=O)O)c(=O)c2cc(F)c(N3CC(C)NC(C)C3)cc21 (stereo not drawn)
0.6

====

System: Streptococcus pyogenes
Assay: Antibacterial activity was determined against gram positive organism, Streptococcus pyogenes (C203)
Assay type: functional
MEASURED_ENDPOINT: MIC (µg/mL)
// units = µg/mL; emit number, no label

Solved cases (4 shown):
- COMPOUND: "O=C(O)c1cn(-c2ccc(F)cc2F)c2cc(N3CCNCC3)c(F)cc2c1=O"
  SCALE_UNIT: "µg/mL"
  MIC: 0.2
- COMPOUND: "CC1CN(c2cc3c(cc2F)c(=O)c(C(=O)O)cn3C2CC2)CCN1 (stereo not given)"
  SCALE_UNIT: "µg/mL"
  MIC: 0.2
- COMPOUND: "CC1CN(c2cc3c(cc2F)c(=O)c(C(=O)O)cn3-c2ccc(F)cc2F)CCN1 (stereo not given)"
  SCALE_UNIT: "µg/mL"
  MIC: 0.1
- COMPOUND: "CC1(CN)CCN(c2c(F)cc3c(=O)c(C(=O)O)cn(C4CC4)c3c2F)C1 (stereo not given)"
  SCALE_UNIT: "µg/mL"
  MIC: 0.025

Please give the measured MIC for this compound: Cc1c(F)c(N2CCNC(C)C2)c(F)c2c1c(=O)c(C(=O)O)cn2C1CC1 (stereo not given)
0.05

====

log10(MIC) listing for selected compounds.
Tested on: Pseudomonas aeruginosa
Assay: Antibacterial activity was determined against gram negative organism, Pseudomonas aeruginosa (UI-18)
Format: functional
Please note: log10 values; quantity MIC; unit µg/mL.

Observe how each entry below is paired with its result.
- COMPOUND: "Cc1c(F)c(N2CCNCC2)c(F)c2c1c(=O)c(C(=O)O)cn2C1CC1"
  EXPERIMENTAL_TARGET: "Pseudomonas aeruginosa"
  log10(MIC): -0.70
- COMPOUND: "Cc1c(F)c(N2CCC(N)C2)cc2c1c(=O)c(C(=O)O)cn2C1CC1 (stereo not given)"
  EXPERIMENTAL_TARGET: "Pseudomonas aeruginosa"
  log10(MIC): -0.40
- COMPOUND: "CCNCC1CCN(c2cc3c(cc2F)c(=O)c(C(=O)O)cn3-c2ccc(F)cc2F)C1 (stereo not given)"
  EXPERIMENTAL_TARGET: "Pseudomonas aeruginosa"
  log10(MIC): 0.49
- COMPOUND: "CCc1c(F)c(N2CCNCC2)cc2c1c(=O)c(C(=O)O)cn2C1CC1"
  EXPERIMENTAL_TARGET: "Pseudomonas aeruginosa"
  log10(MIC): 1.10
- COMPOUND: "Cc1c(F)c(N2CCC(N)C2)c(F)c2c1c(=O)c(C(=O)O)cn2C1CC1 (stereo not given)"
  EXPERIMENTAL_TARGET: "Pseudomonas aeruginosa"
  log10(MIC): -0.40
- COMPOUND: "CC1(CN)CCN(c2cc3c(cc2F)c(=O)c(C(=O)O)cn3C2CC2)C1 (stereo not given)"
  EXPERIMENTAL_TARGET: "Pseudomonas aeruginosa"
  log10(MIC): -0.10

Pseudomonas aeruginosa / log10(MIC) / CCn1cc(C(=O)O)c(=O)c2c(C)c(F)c(N3CCNCC3)cc21 : value?
0.20

Can you check Cc1c(F)c(N2CCNCC2)cc2c1c(=O)c(C(=O)O)cn2C1CC1 next?
-0.70

Now this one: CC1CN(c2cc3c(cc2F)c(=O)c(C(=O)O)cn3-c2ccc(F)cc2F)CCN1 (stereo not given)
0.20

Same read-out for Cc1c(F)c(N2CCNCC2)c(Cl)c2c1c(=O)c(C(=O)O)cn2C1CC1 ?
-0.70
